- Assay comment: Caco-2 cell monolayer membrane transport assay (Papp and recovery)
- Type: in vitro ADME
- Condition summary: human, Caco-2, Caco-2, A-B, Sample-02; read-out: Recovery rate in mass, Sample-02
I'd appreciate it if you could supply recovery values for the items below.

In: Provide measured recovery value, entry: "CO[C@H]1C(=O)[C@]2(C)[C@@H](OC)C[C@H]3OC[C@@]3(OC(C)=O)[C@H]2[C@H](OC(=O)c2ccccc2)[C@]23OC(=O)O[C@H]2[C@H](OC(=O)[C@H](O)[C@@H](NC(=O)OC(C)(C)C)c2ccccn2)C(C)=C1C3(C)C"
Out: 66.5%

In: Provide measured recovery value, entry: "COC(=O)O[C@H]1C[C@H]2OC[C@@]2(OC(C)=O)[C@H]2[C@H](OC(=O)c3ccccc3)[C@]34OC(=O)O[C@H]3[C@H](OC(=O)[C@H](O)[C@@H](NC(=O)OC(C)(C)C)c3ccccc3)C(C)=C([C@@H](OC)C(=O)[C@]12C)C4(C)C"
Out: 73.9%

In: Provide measured recovery value, entry: "CO[C@H]1C(=O)[C@]2(C)[C@@H](OC(=O)N(C)C)C[C@H]3OC[C@@]3(OC(C)=O)[C@H]2[C@H](OC(=O)c2ccccc2)[C@]23OC(=O)O[C@H]2[C@H](OC(=O)[C@H](O)[C@@H](NC(=O)OC(C)(C)C)c2ccccc2)C(C)=C1C3(C)C"
Out: 87.6%

In: Provide measured recovery value, entry: "CO[C@H]1C(=O)[C@]2(C)CC[C@H]3OC[C@@]3(OC(C)=O)[C@H]2[C@H](OC(=O)c2ccccc2)[C@]23OC(=O)O[C@H]2[C@H](OC(=O)[C@H](O)[C@@H](NC(=O)OC(C)(C)C)c2ccccc2)C(C)=C1C3(C)C"
Out: 46.3%

In: Provide measured recovery value, entry: "COC(=O)O[C@H]1C[C@H]2OC[C@@]2(OC(C)=O)[C@H]2[C@H](OC(=O)c3ccccc3)[C@]34OC(=O)O[C@H]3[C@H](OC(=O)[C@H](O)[C@@H](NC(=O)N(C)C)c3ccccc3)C(C)=C([C@@H](OC)C(=O)[C@]12C)C4(C)C"
Out: 70.7%

In: Provide measured recovery value, entry: "CCSC(=O)O[C@H]1C(=O)[C@]2(C)[C@@H](OC)C[C@H]3OC[C@@]3(OC(C)=O)[C@H]2[C@H](OC(=O)c2ccccc2)[C@]23OC(=O)O[C@H]2[C@H](OC(=O)[C@H](O)[C@@H](NC(=O)OC(C)(C)C)c2ccccc2)C(C)=C1C3(C)C"
Out: 41.5 to 43.1%

In: Provide measured recovery value, entry: "CO[C@H]1C[C@H]2OC[C@@]2(OC(C)=O)[C@H]2[C@H](OC(=O)c3ccccc3)[C@]34OC(=O)O[C@H]3[C@H](OC(=O)[C@H](O)[C@@H](NC(=O)OC(C)(C)C)c3ccccc3)C(C)=C([C@@H](OC(=O)N(C)C)C(=O)[C@]12C)C4(C)C"
Out: 97%

In: Provide measured recovery value, entry: "CO[C@H]1C(=O)[C@]2(C)[C@@H](OC)C[C@H]3OC[C@@]3(OC(C)=O)[C@H]2[C@H](OC(=O)c2ccccc2)[C@]23OC(=O)O[C@H]2[C@H](OC(=O)[C@H](O)[C@@H](NC(=O)c2ccccc2)c2ccccc2)C(C)=C1C3(C)C"
Out: 57.4%
